Target: Adrenergic α2B (Homo sapiens, UniProt P18089)
Sequence (P18089 1-450): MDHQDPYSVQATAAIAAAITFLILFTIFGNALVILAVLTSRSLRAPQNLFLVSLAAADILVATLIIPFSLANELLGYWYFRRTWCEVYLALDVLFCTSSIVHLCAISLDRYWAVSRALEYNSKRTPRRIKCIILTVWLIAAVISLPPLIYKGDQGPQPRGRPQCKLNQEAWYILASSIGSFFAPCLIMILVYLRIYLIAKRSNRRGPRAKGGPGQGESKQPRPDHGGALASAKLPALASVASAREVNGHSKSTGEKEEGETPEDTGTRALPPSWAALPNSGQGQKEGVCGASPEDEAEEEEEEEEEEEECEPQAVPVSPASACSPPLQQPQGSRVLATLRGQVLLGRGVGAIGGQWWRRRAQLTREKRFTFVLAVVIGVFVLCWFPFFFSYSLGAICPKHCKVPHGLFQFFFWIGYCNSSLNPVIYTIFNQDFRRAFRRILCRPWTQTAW
assay.readout: Ki
State the value, then name its unit.

Which Ki reading was recorded for the molecule Oc1ccc2c(c1O)-c1cccc3c1C(C2)NCC3 (stereo not shown) ?
213 nM

* * *

Molecular target: Adrenergic α1B (Homo sapiens, UniProt P35368)
Sequence (P35368 whole entry): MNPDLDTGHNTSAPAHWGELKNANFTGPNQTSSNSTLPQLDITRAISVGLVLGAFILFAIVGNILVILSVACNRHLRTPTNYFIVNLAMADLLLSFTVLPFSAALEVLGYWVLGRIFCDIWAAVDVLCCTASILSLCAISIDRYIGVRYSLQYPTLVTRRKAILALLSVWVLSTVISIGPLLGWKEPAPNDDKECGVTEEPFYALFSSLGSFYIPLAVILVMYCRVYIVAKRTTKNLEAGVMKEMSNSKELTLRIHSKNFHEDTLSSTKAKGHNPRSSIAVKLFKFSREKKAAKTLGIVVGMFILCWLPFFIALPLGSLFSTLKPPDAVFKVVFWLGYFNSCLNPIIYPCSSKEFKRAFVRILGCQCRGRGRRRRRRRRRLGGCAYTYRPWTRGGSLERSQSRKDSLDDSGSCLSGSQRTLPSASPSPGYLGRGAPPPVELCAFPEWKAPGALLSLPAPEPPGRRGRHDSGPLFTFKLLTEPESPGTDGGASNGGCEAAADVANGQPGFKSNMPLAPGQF
assay.readout: pKi
Hey, just a heads up that pKi is the negative log base 10 of the concentration in molar.

I am curious: what pKi value has been reported for CN1CCc2cccc3c2[C@H]1Cc1ccc(O)c(O)c1-3 [Apomorphine] ?
6.05

* * *

Molecular target: Serotonin 5-HT7 (Homo sapiens, UniProt P34969)
Sequence (P34969 whole entry): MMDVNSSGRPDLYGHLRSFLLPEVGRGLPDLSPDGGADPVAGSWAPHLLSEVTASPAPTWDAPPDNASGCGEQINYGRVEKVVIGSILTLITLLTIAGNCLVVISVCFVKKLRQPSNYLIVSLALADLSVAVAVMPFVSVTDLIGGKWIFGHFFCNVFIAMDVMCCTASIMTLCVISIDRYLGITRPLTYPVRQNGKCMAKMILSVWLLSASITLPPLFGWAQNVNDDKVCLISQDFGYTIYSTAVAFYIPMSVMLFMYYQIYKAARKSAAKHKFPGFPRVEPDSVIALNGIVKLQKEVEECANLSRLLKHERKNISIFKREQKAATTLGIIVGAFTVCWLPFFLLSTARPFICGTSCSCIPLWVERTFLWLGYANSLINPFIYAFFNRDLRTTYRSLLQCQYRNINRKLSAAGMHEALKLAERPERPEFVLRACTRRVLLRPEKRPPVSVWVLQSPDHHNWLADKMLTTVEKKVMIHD
Assay: radioligand binding assay, Serotonin 5-HT7
Conditions: Serotonin 5-HT7; read-out: Ki
assay.readout: Ki (nM)
Only the number, expressed in nM, is required.

What does the record list as Ki for Oc1ccc2c(c1O)-c1cccc3c1C(C2)NCC3 (stereo not shown) ?
1380

* * *

Target: Adrenergic α2C (Homo sapiens, UniProt P18825)
Sequence (P18825 whole entry): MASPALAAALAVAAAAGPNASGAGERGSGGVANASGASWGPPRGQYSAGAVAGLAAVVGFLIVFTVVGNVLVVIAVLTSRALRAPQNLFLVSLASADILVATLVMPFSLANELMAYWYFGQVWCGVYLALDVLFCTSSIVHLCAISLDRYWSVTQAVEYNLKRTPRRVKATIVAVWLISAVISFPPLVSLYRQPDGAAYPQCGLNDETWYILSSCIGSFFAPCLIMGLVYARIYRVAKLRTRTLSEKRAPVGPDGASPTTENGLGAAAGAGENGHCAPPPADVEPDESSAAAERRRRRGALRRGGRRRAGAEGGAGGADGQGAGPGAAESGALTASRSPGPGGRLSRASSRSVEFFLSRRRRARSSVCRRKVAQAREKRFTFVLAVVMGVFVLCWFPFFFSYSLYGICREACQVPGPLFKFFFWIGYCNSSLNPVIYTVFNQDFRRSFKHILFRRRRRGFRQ
assay.readout: Ki (nM)
Express your answer in nM, writing the number without its unit.

GET /values?readout=Ki&item= CN1CCc2cccc3c2[C@H]1Cc1ccc(O)c(O)c1-3
19

* * *

A short record of pKi observed with Serotonin 5-HT1B (Homo sapiens, UniProt P28222) follows.
Sequence (P28222 whole entry): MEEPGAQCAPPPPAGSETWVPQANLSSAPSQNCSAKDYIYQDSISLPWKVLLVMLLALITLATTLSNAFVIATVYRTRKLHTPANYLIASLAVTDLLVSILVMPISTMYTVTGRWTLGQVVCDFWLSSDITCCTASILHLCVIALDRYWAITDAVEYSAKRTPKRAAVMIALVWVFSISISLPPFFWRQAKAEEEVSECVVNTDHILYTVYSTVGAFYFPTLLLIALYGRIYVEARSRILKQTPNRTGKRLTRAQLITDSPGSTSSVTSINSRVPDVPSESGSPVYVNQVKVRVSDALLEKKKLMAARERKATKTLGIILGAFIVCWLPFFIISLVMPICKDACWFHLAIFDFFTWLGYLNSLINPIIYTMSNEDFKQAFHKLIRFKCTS
Keep in mind that pKi stands for -log10 of concentration in molar terms.

For the compound shown here, Oc1ccc2c(c1O)-c1cccc3c1C(C2)NCC3 (centres unmarked) , give the reported pKi.
5.45

Can you handle CN1CCc2cccc3c2[C@H]1Cc1ccc(O)c(O)c1-3 next?
6.69

* * *

Would you mind telling me the reported Ki of each entry?
Molecular target: UniProtKB P35348
Sequence (P35348 1-466): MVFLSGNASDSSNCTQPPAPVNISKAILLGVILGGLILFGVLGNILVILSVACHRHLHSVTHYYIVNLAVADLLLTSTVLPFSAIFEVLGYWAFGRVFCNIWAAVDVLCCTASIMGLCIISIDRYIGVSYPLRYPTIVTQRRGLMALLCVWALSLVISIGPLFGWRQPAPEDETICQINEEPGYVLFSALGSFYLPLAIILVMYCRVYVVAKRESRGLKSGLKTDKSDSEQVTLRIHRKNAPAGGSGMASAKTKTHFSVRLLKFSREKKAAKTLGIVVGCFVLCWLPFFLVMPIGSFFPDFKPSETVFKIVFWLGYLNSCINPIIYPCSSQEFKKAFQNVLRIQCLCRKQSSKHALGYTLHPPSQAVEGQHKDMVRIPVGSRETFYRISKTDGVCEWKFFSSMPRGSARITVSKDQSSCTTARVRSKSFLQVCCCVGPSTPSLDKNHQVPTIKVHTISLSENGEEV
Give just the numeric value; µM need not be written.

UniProtKB P35348 / Ki / Oc1ccc2c(c1O)-c1cccc3c1C(C2)NCC3 (centres unmarked) : value?
4.17

Now consider CN1CCc2cccc3c2[C@H]1Cc1ccc(O)c(O)c1-3 .
0.343

Cited source: patent US6506765B2
